Measured values drawn from ChEMBL document CHEMBL4888484 for this set.

System: Plasmodium falciparum
ASSAY SUMMARY: Primary screen in NF54 nanoGlo assay, in single point, at 2uM, 72h
Assay type: functional, Erythrocyte
ASSAY CONTEXT: timepoint 72 hour
The campaign covered roughly 150,000 compounds. About 540 (0.36%) showed an effect of 50% or more. The list comes from a sample in which strong results are over-represented; it also holds close analogues and randomly drawn compounds.
READOUT LABEL: % Inhibition (%)
Provide only the numeric value, understood in %.

Could you please provide reported % Inhibition for C[N+]12CCCC[C@@H]1[C@H](COC(=O)c1ccccc1Cl)CCC2 (stereo partly specified) ? Thanks!
7

Answer with the recorded % Inhibition of Cc1ccsc1-c1noc([C@H]2CCc3nccn3C2)n1 only.
-5

Respond only with % Inhibition recorded for COc1cc2ccc1OCC(=O)N[C@@H](C)C(=O)N(C)CCCCN(C(=O)c1cc(Cl)cn1C)CCCNC2=O
-24

Name the recorded % Inhibition of the item Cc1ccc([C@H]2C=NN(c3ccc(Br)cc3)C2=O)cc1 in your answer.
76

Consider the compound CC1(C)C2CCC(C2)C1CC1OCC(C[N+]2(Cc3ccccc3)CCCCC2)O1 (stereo unspecified) and give its recorded % Inhibition.
-7

Please supply the value of reported % Inhibition for the item CC(CC1OCC(C[N+]2(Cc3ccccc3)CCCCC2)O1)CC(C)(C)C (stereo unspecified)
60

Supply recorded % Inhibition for O=C(NCCc1cn2c(n1)CCCC2)c1cccnc1 here.
-1

Name the recorded % Inhibition of the item Cc1cnn(C)c1CN1CCOC[C@H]1c1nc(-c2ccccc2)no1 in your answer.
16

Return the recorded % Inhibition value; entry: Cc1noc(CNC(=O)c2ccc3[nH]c(=O)[nH]c3c2)n1
-7

Output measured % Inhibition for this item: CC1=C(C(=O)N2C[C@H]3CC=CC[C@H]3C2)C(C)NC(=O)N1 (stereo partly specified)
-13

# return recorded % Inhibition for input COC(=O)c1ccc(C[N+]2(C[C@H]3COC4(CCCCC4)O3)CCCC2)cc1
-5
